# System under test: Alpha-2A adrenergic receptor (Homo sapiens); further: assay procedure not described here
# Sequence (P08913 whole entry): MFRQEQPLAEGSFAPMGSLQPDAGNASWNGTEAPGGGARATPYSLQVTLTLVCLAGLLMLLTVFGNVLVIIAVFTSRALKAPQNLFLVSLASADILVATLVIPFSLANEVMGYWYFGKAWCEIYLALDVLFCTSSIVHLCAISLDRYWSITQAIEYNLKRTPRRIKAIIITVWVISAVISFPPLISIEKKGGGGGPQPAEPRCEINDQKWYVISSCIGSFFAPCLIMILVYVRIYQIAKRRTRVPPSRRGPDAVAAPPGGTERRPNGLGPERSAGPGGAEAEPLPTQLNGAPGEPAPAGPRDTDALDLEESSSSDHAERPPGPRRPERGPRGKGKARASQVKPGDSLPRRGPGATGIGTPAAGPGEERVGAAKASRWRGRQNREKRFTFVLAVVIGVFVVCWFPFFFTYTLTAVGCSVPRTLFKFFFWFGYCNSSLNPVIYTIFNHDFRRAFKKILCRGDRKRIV
# Type: functional, cell-based
Where a SMILES comes first, the peptide text is derived from it.

{"Molecule": "CN1CC2c3ccccc3Oc3ccc(Cl)cc3C2C1 (stereo not given)", "AC50": "> 30 µM"}
{"Molecule": "COC(=O)CCc1ccc(OCC(O)CNC(C)C)cc1 (stereo not given)", "AC50": "> 30 µM"}
{"Molecule": "CCC1(CC)C(=O)NC(=O)N(C)C1=O", "AC50": "> 10 µM"}
{"Molecule": "OCC(CO)N[C@H]1C[C@](O)(CO)[C@@H](O)[C@H](O)[C@H]1O", "AC50": "> 30 µM"}
{"Molecule": "C[C@]12C=CC(=O)C=C1C(Cl)=C[C@@H]1[C@@H]2[C@@H](O)C[C@@]2(C)[C@H]1CC[C@]2(O)C(=O)CO", "AC50": "> 30 µM"}
{"Molecule": "OCC(O)COc1ccc(Cl)cc1 (stereo not given)", "AC50": "> 10 µM"}
{"Molecule": "O=C(O)c1nn(Cc2ccc(Cl)cc2Cl)c2ccccc12", "AC50": "> 30 µM"}
{"Molecule": "CCN(CCO)CCCC(C)Nc1ccnc2cc(Cl)ccc12 (stereo not given) [HYDROXYCHLOROQUINE]", "AC50": "> 10 µM"}
{"Molecule": "CN(C)CCC(O)(c1ccccc1)c1ccccc1Cl (stereo not given)", "AC50": "> 10 µM"}
{"Molecule": "CCOC(=O)[C@H](CCc1ccccc1)N[C@@H](C)C(=O)N1Cc2ccccc2C[C@H]1C(=O)O", "AC50": "> 10 µM"}
{"Molecule": "CCC(=O)O[C@H](CC(=O)O)C[N+](C)(C)C [LEVOCARNITINE PROPIONATE]", "AC50": "> 30 µM"}
{"Molecule": "NCCCNCCSP(=O)(O)O", "AC50": "> 30 µM"}
{"Molecule": "COc1ccc(-n2nc(C(N)=O)c3c2C(=O)N(c2ccc(N4CCCCC4=O)cc2)CC3)cc1", "AC50": "> 30 µM"}
{"Molecule": "CC1Cc2ccccc2N1NC(=O)c1ccc(Cl)c(S(N)(=O)=O)c1 (stereo not given) [INDAPAMIDE]", "AC50": "> 10 µM"}
{"Molecule": "CO[C@@H]1[C@@H](OC(N)=O)[C@@H](O)[C@H](Oc2ccc3c(O)c(NC(=O)c4ccc(O)c(CC=C(C)C)c4)c(=O)oc3c2C)OC1(C)C", "AC50": "> 30 µM"}
{"Molecule": "CC1=C(/C=C/C(C)=C/C=C/C(C)=C/C(=O)Oc2c(C)c(C)c3c(c2C)CCC(C)(CCCC(C)CCCC(C)CCCC(C)C)O3)C(C)(C)CCC1 (stereo not given)", "AC50": "> 30 µM"}
{"Molecule": "Cc1cnc(Nc2ccc(OCCN3CCCC3)cc2)nc1Nc1cccc(S(=O)(=O)NC(C)(C)C)c1", "AC50": "> 10 µM"}
{"Molecule": "CC(=O)NC[C@H]1CN(c2ccc(N3CCOCC3)c(F)c2)C(=O)O1", "AC50": "> 30 µM"}
{"Molecule": "CN(C)CCOC(c1ccc(Cl)cc1)c1ccccn1 (stereo not given)", "AC50": "> 30 µM"}
{"Molecule": "N=C(N)NC(=O)c1nc(Cl)c(N)nc1N [AMILORIDE]", "AC50": "> 30 µM"}
{"Molecule": "CC(C)C[C@H](NC(=O)[C@H](Cc1ccccc1)NC(=O)c1cnccn1)B(O)O", "AC50": "> 30 µM"}
{"Molecule": "CN(C)CCC=C1c2ccccc2CCc2ccccc21", "AC50": "> 10 µM"}
{"Molecule": "C[C@H](N)C(=O)N[C@@H](CCC(N)=O)C(=O)O [ALANYL GLUTAMINE] (H-Ala-Gln-OH)", "AC50": "> 30 µM"}
{"Molecule": "CC1(C)O[C@@H]2C[C@H]3[C@@H]4CCC5=CC(=O)C=C[C@]5(C)[C@@]4(F)[C@@H](O)C[C@]3(C)[C@]2(C(=O)CO)O1 [TRIAMCINOLONE ACETONIDE]", "AC50": "> 30 µM"}
{"Molecule": "CC(=O)Oc1cccc2c1C(=O)c1c(OC(C)=O)cc(C(=O)O)cc1C2=O", "AC50": "12 µM"}
{"Molecule": "COC(=O)[C@H]1[C@H]2C[C@@H]3c4[nH]c5ccccc5c4CCN3C[C@H]2C[C@@H](OC(=O)c2cc(OC)c(OC)c(OC)c2)[C@@H]1OC", "AC50": "> 10 µM"}
{"Molecule": "COc1cccc2c1C(=O)c1c(O)c3c(c(O)c1C2=O)C[C@@](O)(C(=O)CO)C[C@@H]3O[C@H]1C[C@H](N)[C@H](O)[C@H](C)O1", "AC50": "12 µM"}
{"Molecule": "CC(NC(C)(C)C)C(=O)c1cccc(Cl)c1 (stereo not given)", "AC50": "> 10 µM"}
{"Molecule": "NCCCCCC(=O)O", "AC50": "> 10 µM"}
{"Molecule": "CCN(CC)C(C)C(=O)c1ccccc1 (stereo not given)", "AC50": "> 10 µM"}
{"Molecule": "CC(C)NCC(O)COc1ccc(CC(N)=O)cc1 (stereo not given)", "AC50": "> 30 µM"}
{"Molecule": "COc1ccc2c3c1O[C@H]1C(=O)CC[C@H]4[C@@H](C2)N(C)CC[C@]314 [HYDROCODONE]", "AC50": "> 10 µM"}
{"Molecule": "CCC(NC(C)C)C(O)c1ccc(O)c(O)c1 (stereo not given)", "AC50": "> 30 µM"}
{"Molecule": "CCOc1ccccc1OCCN[C@H](C)Cc1ccc(OC)c(S(N)(=O)=O)c1", "AC50": "> 30 µM"}
{"Molecule": "CN1C2CCCC1CC(NC(=O)c1nn(C)c3ccccc13)C2 (stereo not given)", "AC50": "> 10 µM"}

* * *

Reported AC50 is given for each of the following molecules.
# System under test: Melanocortin receptor 4 (Homo sapiens); further: assay procedure not described here
# Sequence (P32245 whole entry): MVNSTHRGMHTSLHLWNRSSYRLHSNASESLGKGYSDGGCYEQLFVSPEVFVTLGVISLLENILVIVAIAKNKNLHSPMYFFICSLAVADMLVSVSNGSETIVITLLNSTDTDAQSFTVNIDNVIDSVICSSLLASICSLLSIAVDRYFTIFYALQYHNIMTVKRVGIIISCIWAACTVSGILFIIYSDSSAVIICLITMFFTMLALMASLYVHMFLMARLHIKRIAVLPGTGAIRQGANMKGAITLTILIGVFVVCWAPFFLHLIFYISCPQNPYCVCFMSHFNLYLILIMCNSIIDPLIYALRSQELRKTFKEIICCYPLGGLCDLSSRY
Observed property: AC50

{"Molecule": "CCN(CC)CCCN(c1ccccc1)C1Cc2ccccc2C1 [APRINDINE]", "System under test": "Melanocortin receptor 4 (Homo sapiens)", "Result": "> 10 µM"}
{"Molecule": "C[C@]12CCC(=O)C=C1CC[C@H]1[C@@H]3CC[C@](O)(C(=O)CO)[C@@]3(C)C[C@H](O)[C@@]12F [FLUDROCORTISONE]", "System under test": "Melanocortin receptor 4 (Homo sapiens)", "Result": "> 30 µM"}
{"Molecule": "CCOC(=O)O[C@]1(C(=O)COC(=O)CC)CC[C@H]2[C@@H]3CCC4=CC(=O)C=C[C@]4(C)[C@H]3[C@@H](O)C[C@@]21C [PREDNICARBATE]", "System under test": "Melanocortin receptor 4 (Homo sapiens)", "Result": "> 10 µM"}
{"Molecule": "CC(=O)OCC1=C(C(=O)O)N2C(=O)[C@@H](NC(=O)CSc3ccncc3)[C@H]2SC1 [CEPHAPIRIN]", "System under test": "Melanocortin receptor 4 (Homo sapiens)", "Result": "> 10 µM"}
{"Molecule": "CCOc1cc2ncc(C#N)c(Nc3ccc(OCc4ccccn4)c(Cl)c3)c2cc1NC(=O)/C=C/CN(C)C [NERATINIB]", "System under test": "Melanocortin receptor 4 (Homo sapiens)", "Result": "> 30 µM"}
{"Molecule": "CC1NCCOC1c1ccccc1 (configuration not stated) [PHENMETRAZINE]", "System under test": "Melanocortin receptor 4 (Homo sapiens)", "Result": "> 30 µM"}
{"Molecule": "CCC(=O)c1ccc2c(c1)N(CC(C)N(C)C)c1ccccc1S2 (configuration not stated) [PROPIOMAZINE]", "System under test": "Melanocortin receptor 4 (Homo sapiens)", "Result": "> 10 µM"}
{"Molecule": "C[C@]12C=CC(=O)C=C1CC[C@@H]1[C@@H]2[C@@H](O)C[C@@]2(C)[C@H]1CC[C@]2(O)C(=O)CO [PREDNISOLONE]", "System under test": "Melanocortin receptor 4 (Homo sapiens)", "Result": "> 30 µM"}
{"Molecule": "CCN(CC)CCn1c(=O)c(Cc2ccc(OC)cc2)nc2ccccc21 [CAROVERINE]", "System under test": "Melanocortin receptor 4 (Homo sapiens)", "Result": "> 30 µM"}
{"Molecule": "Nc1nnc(-c2cccc(Cl)c2Cl)c(N)n1 [LAMOTRIGINE]", "System under test": "Melanocortin receptor 4 (Homo sapiens)", "Result": "> 30 µM"}
{"Molecule": "CN(C)CCC=C1c2ccccc2CCc2ccccc21 [AMITRIPTYLINE]", "System under test": "Melanocortin receptor 4 (Homo sapiens)", "Result": "17.7 µM"}
{"Molecule": "Cc1nnc2n1-c1ccc(Cl)cc1C(c1ccccc1)=NC2 [ALPRAZOLAM]", "System under test": "Melanocortin receptor 4 (Homo sapiens)", "Result": "> 30 µM"}
{"Molecule": "COc1cccc2c1C(=O)c1c(O)c3c(c(O)c1C2=O)C[C@@](O)(C(=O)CO)C[C@@H]3O[C@H]1C[C@H](N)[C@H](O)[C@H](C)O1 [DOXORUBICIN]", "System under test": "Melanocortin receptor 4 (Homo sapiens)", "Result": "> 30 µM"}
{"Molecule": "O=C(O[C@H]1C[N+]2(CCCOc3ccccc3)CCC1CC2)C(O)(c1cccs1)c1cccs1 [ACLIDINIUM BROMIDE]", "System under test": "Melanocortin receptor 4 (Homo sapiens)", "Result": "> 30 µM"}
{"Molecule": "COc1ccc2c3c1O[C@H]1C(=O)CC[C@H]4[C@@H](C2)N(C)CC[C@]314 [HYDROCODONE]", "System under test": "Melanocortin receptor 4 (Homo sapiens)", "Result": "> 30 µM"}
{"Molecule": "CC1Cc2ccccc2N1NC(=O)c1ccc(Cl)c(S(N)(=O)=O)c1 (configuration not stated) [INDAPAMIDE]", "System under test": "Melanocortin receptor 4 (Homo sapiens)", "Result": "> 30 µM"}
{"Molecule": "CN(C)CCC(O)(c1ccccc1)c1ccccc1Cl (configuration not stated) [CHLOPHEDIANOL]", "System under test": "Melanocortin receptor 4 (Homo sapiens)", "Result": "> 10 µM"}
